- ASSAY_OVERVIEW: Oral bioavailability / pharmacokinetic study (serum magnolol by HPLC)
- Format: in vivo
- RUN_PARAMETERS: Sprague-Dawley (SD), rat, IP (intraperitoneal route), 100 mg kg^−1, male SD rats
ASSAY_METRIC: Cmax (ng/mL)
Form entry: value (ng/mL) — number only.

Query: Given "C=CCc1ccc(O)c(-c2cc(CC=C)ccc2O)c1" , state its recorded Cmax.
Response: 5100

* * *

- ASSAY_OVERVIEW: Oral bioavailability / pharmacokinetic study (serum magnolol by HPLC)
- Format: in vivo
- RUN_PARAMETERS: Sprague-Dawley (SD), rat, PO (oral route), 100 mg kg^−1, male SD rats
ASSAY_METRIC: Tmax (min)
Form entry: value (min) — number only.

Query: Given "C=CCc1ccc(O)c(-c2cc(CC=C)ccc2O)c1" , state its recorded Tmax.
Response: 55.8

* * *

- ASSAY_OVERVIEW: Oral bioavailability / pharmacokinetic study (serum magnolol by HPLC)
- Type: in vivo
- RUN_PARAMETERS: Sprague-Dawley (SD), rat, PO (oral route), 100 mg kg^−1, male SD rats
ASSAY_METRIC: Cmax
Write the quantity with the unit trailing the number.

Query: Given "C=CCc1ccc(O)c(-c2cc(CC=C)ccc2O)c1" , state its recorded Cmax.
Response: 2570 ng/mL

* * *

- ASSAY_OVERVIEW: Oral bioavailability / pharmacokinetic study (serum magnolol by HPLC)
- Format: in vivo
- RUN_PARAMETERS: Sprague-Dawley (SD), rat, IP (intraperitoneal route), 100 mg kg^−1, male SD rats
ASSAY_METRIC: AUC(0-inf) (ng·h/mL)
Form entry: value (ng·h/mL) — number only.

Query: Given "C=CCc1ccc(O)c(-c2cc(CC=C)ccc2O)c1" , state its recorded AUC(0-inf).
Response: 66900

* * *

- ASSAY_OVERVIEW: Oral bioavailability / pharmacokinetic study (serum magnolol by HPLC)
- Format: in vivo
- RUN_PARAMETERS: Sprague-Dawley (SD), rat, IP (intraperitoneal route), 100 mg kg^−1, male SD rats, read-out: AUC0–720 (converted)
ASSAY_METRIC: AUC(0-t) (ng·h/mL)
Form entry: value (ng·h/mL) — number only.

Query: Given "C=CCc1ccc(O)c(-c2cc(CC=C)ccc2O)c1" , state its recorded AUC(0-t).
Response: 43000

* * *

- ASSAY_OVERVIEW: Oral bioavailability / pharmacokinetic study (serum magnolol by HPLC)
- Format: in vivo
- RUN_PARAMETERS: male, Sprague-Dawley (SD), rat, ip, 100 mg/kg, IP (intraperitoneal route), 100 mg kg^−1, male SD rats, read-out: T1/2 (elimination half-life)
ASSAY_METRIC: half-life (h)
Form entry: value (h) — number only.

Query: Given "C=CCc1ccc(O)c(-c2cc(CC=C)ccc2O)c1" , state its recorded half-life.
Response: 7.68

* * *

- ASSAY_OVERVIEW: Oral bioavailability / pharmacokinetic study (serum magnolol by HPLC)
- Assay type: in vivo
- RUN_PARAMETERS: male, Sprague-Dawley (SD), rat, po, 100 mg/kg, PO (oral route), 100 mg kg^−1, male SD rats, read-out: T1/2 (elimination half-life)
ASSAY_METRIC: half-life (h)
Form entry: value (h) — number only.

Query: Given "C=CCc1ccc(O)c(-c2cc(CC=C)ccc2O)c1" , state its recorded half-life.
Response: 1.67
